# Tested on: UCP1 (uncoupling protein-1)
# testDetails: Adipocyte differentiation induction experiment: relative UCP1 expression by real time PCR in C3H10T1/2 cells differentiated into white adipocytes
# Format: cell-based
# conditionInfo: compound 20 μM, relative to DMSO control
The reader will find reported Relative expression level of UCP1 compared to DMSO values listed item by item below.
valueKind: Relative expression level of UCP1 compared to DMSO

chemicalStructure | targetOrSystem | observedResult
Cc1cc(-n2cc(-c3ccc(O)c(O)c3)nn2)ccc1O | UCP1 (uncoupling protein-1) | 2.3
Oc1ccc(-n2cc(-c3ccc(O)c(O)c3)nn2)cc1 | UCP1 (uncoupling protein-1) | 2.1
Oc1ccc(-c2cn(-c3ccc(Cl)cc3)nn2)cc1O | UCP1 (uncoupling protein-1) | 6.6
COc1ccc(-n2cc(-c3ccc(O)c(O)c3)nn2)c(OC)c1 | UCP1 (uncoupling protein-1) | 3.5
C[NH+](C)CCOc1ccc(-n2cc(-c3ccc(O)c(O)c3)nn2)cc1.[Cl-] | UCP1 (uncoupling protein-1) | 2.3
OCCOc1ccc(-n2cc(-c3ccc(O)c(O)c3)nn2)cc1 | UCP1 (uncoupling protein-1) | 1.6
Nc1c(-c2ccc(Cl)cc2)nnn1-c1ccc(O)c(O)c1 | UCP1 (uncoupling protein-1) | 10.6
Oc1ccc(-c2cn(-c3ccc(F)cc3)nn2)cc1O | UCP1 (uncoupling protein-1) | 12.2

Source: patent US12297178B2
